The following compounds are shown together with reported Activity values.
ASSAY COMMENT: Neuroprotection in Sprague-Dawley rat embryonic motor cortex neurons assessed as protection against 100 uM H2O2-induced neuronal death at 5 uM by MTT method
Format: functional, Neuron

| CHEMICAL STRUCTURE | Activity (%) |
| --- | --- |
| C#CCN(CC#C)[C@@H]1C[C@@H](OC(C)=O)c2ccccc21 | 12.3 |
| C#CCN(CC#C)[C@@H]1C[C@H](OC(C)=O)c2ccccc21 | 18.2 |
| C#CCN(CC#C)[C@@H]1C[C@@H](O)c2ccccc21 | 19.6 |
| C#CCN[C@@H]1C[C@@H](O)c2ccccc21 | 14.5 |
| C#CCN(CC#C)[C@@H]1C[C@H](O)c2ccccc21 | 17.8 |
| C#CCN(CC#C)[C@@H]1C[C@@H](OC(=O)c2ccccc2)c2ccccc21 | -5.8 |
| C#CCN(CC#C)[C@@H]1C[C@H](OC(=O)c2ccccc2)c2ccccc21 | 16.4 |
| C#CCN[C@@H]1C[C@H](O)c2ccccc21 | 46.2 |

###

ASSAY COMMENT: Neuroprotection in Sprague-Dawley rat embryonic motor cortex neurons assessed as protection against 100 uM glutamate-induced excitotoxicity at 5 uM by MTT method
Format: functional, Neuron
The following molecules are shown together with reported Activity values.

| CHEMICAL STRUCTURE | Activity / % |
| --- | --- |
| C#CCN(CC#C)[C@@H]1C[C@@H](O)c2ccccc21 | -0.5 |
| C#CCN(CC#C)[C@@H]1C[C@H](OC(C)=O)c2ccccc21 | -1.5 |
| C#CCN[C@@H]1C[C@@H](O)c2ccccc21 | 15.2 |
| C#CCN(CC#C)[C@@H]1C[C@@H](OC(C)=O)c2ccccc21 | -0.5 |
| C#CCN(CC#C)[C@@H]1C[C@@H](OC(=O)c2ccccc2)c2ccccc21 | -1.3 |
| C#CCN(CC#C)[C@@H]1C[C@H](O)c2ccccc21 | 0 |
| C#CCN(CC#C)[C@@H]1C[C@H](OC(=O)c2ccccc2)c2ccccc21 | 1.6 |
| C#CCN[C@@H]1C[C@H](O)c2ccccc21 | 0 |
